test: Phase I open-label single-dose crossover oral bioavailability / PK test of bedoradrine sulfate in healthy volunteers; assay type: in vivo, human; settings: human two, in vivo, iv, 300 ug, Vss, individual subject
Structures can show the parent of a compound that is named as a salt.
VALUE_TYPE: Vd (L)
Dear colleague, please return just the value in L, with no unit written.

What the record says about CN(C)C(=O)COc1ccc2c(c1)C[C@@H](NC[C@H](O)c1ccc(O)c(CCO)c1)CC2 [MN-221, bedoradrine sulfate] : Vd is 225

---

experiment: Phase I open-label single-dose crossover oral bioavailability / PK test of bedoradrine sulfate in healthy volunteers; format: in vivo, human; details: both sexes, human, in vivo, iv, 300 ug, AUC 0-24 h, mean
Structures can show the parent of a compound that is named as a salt.
VALUE_TYPE: AUC(0-t) (ng·h/mL)
Dear colleague, please return just the value in ng·h/mL, with no unit written.

What the record says about CN(C)C(=O)COc1ccc2c(c1)C[C@@H](NC[C@H](O)c1ccc(O)c(CCO)c1)CC2 [MN-221, bedoradrine sulfate] : AUC(0-t) is 13.2

---

experiment: Phase I open-label single-dose crossover oral bioavailability / PK test of bedoradrine sulfate in healthy volunteers; type: in vivo, human; details: human two, in vivo, iv, 300 ug, Cmax, individual subject
Counter-ions that a name gives are not always drawn.
VALUE_TYPE: Cmax
Just the number plus its unit, please.

What the record says about CN(C)C(=O)COc1ccc2c(c1)C[C@@H](NC[C@H](O)c1ccc(O)c(CCO)c1)CC2 [MN-221, bedoradrine sulfate] : Cmax is 14.8 ng/mL

---

assay: Phase I open-label single-dose crossover oral bioavailability / PK test of bedoradrine sulfate in healthy volunteers; format: in vivo, human; details: both sexes, human, in vivo, iv, 300 ug, Vss, median
Counter-ions that a name gives are not always drawn.
VALUE_TYPE: Vd (L)
Dear colleague, please return just the value in L, with no unit written.

What the record says about CN(C)C(=O)COc1ccc2c(c1)C[C@@H](NC[C@H](O)c1ccc(O)c(CCO)c1)CC2 [MN-221, bedoradrine sulfate] : Vd is 206

---

experiment: Phase I open-label single-dose crossover oral bioavailability / PK test of bedoradrine sulfate in healthy volunteers; assay type: in vivo, human; conditions: both sexes, human, in vivo, po, 600 ug, Cmax, median
Counter-ions that a name gives are not always drawn.
VALUE_TYPE: Cmax (ng/mL)
Dear colleague, please return just the value in ng/mL, with no unit written.

What the record says about CN(C)C(=O)COc1ccc2c(c1)C[C@@H](NC[C@H](O)c1ccc(O)c(CCO)c1)CC2 [MN-221, bedoradrine sulfate] : Cmax is 0.301

---

experiment: Phase I open-label single-dose crossover oral bioavailability / PK test of bedoradrine sulfate in healthy volunteers; type: in vivo, human; details: both sexes, human, in vivo, iv, 300 ug, Cmax, mean
Counter-ions that a name gives are not always drawn.
VALUE_TYPE: Cmax (ng/mL)
Dear colleague, please return just the value in ng/mL, with no unit written.

What the record says about CN(C)C(=O)COc1ccc2c(c1)C[C@@H](NC[C@H](O)c1ccc(O)c(CCO)c1)CC2 [MN-221, bedoradrine sulfate] : Cmax is 10.7

---

assay: Phase I open-label single-dose crossover oral bioavailability / PK test of bedoradrine sulfate in healthy volunteers; format: in vivo, human; settings: both sexes, human, in vivo, iv, 300 ug, CL, mean
Where a name gives a salt, the structure may show the parent alone.
VALUE_TYPE: clearance (mL/min)
Dear colleague, please return just the value in mL/min, with no unit written.

What the record says about CN(C)C(=O)COc1ccc2c(c1)C[C@@H](NC[C@H](O)c1ccc(O)c(CCO)c1)CC2 [MN-221, bedoradrine sulfate] : clearance is 322
